B1: HEEH_KT_rd6_3632 (parent)
chain: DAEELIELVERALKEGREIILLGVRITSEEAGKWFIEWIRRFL

Variants of: B1
RUN_DESCRIPTION: folding stability dG (cDNA display proteolysis); higher = more stable
CONDITION_NOTES: PBS, room temperature
MEASUREMENT_TYPE: folding stability dG

[
  {
    "CHANGE": "T27G",
    "MEASUREMENT_TYPE": "folding stability dG",
    "RESULT": "3.67 kcal/mol"
  },
  {
    "CHANGE": "E3Y",
    "MEASUREMENT_TYPE": "folding stability dG",
    "RESULT": "4.02 kcal/mol"
  },
  {
    "CHANGE": "E15G",
    "MEASUREMENT_TYPE": "folding stability dG",
    "RESULT": "3.31 kcal/mol"
  },
  {
    "CHANGE": "R40V",
    "MEASUREMENT_TYPE": "folding stability dG",
    "RESULT": "3.48 kcal/mol"
  },
  {
    "CHANGE": "E10A",
    "MEASUREMENT_TYPE": "folding stability dG",
    "RESULT": "3.63 kcal/mol"
  },
  {
    "CHANGE": "G23H",
    "MEASUREMENT_TYPE": "folding stability dG",
    "RESULT": "3.6 kcal/mol"
  },
  {
    "CHANGE": "I19L",
    "MEASUREMENT_TYPE": "folding stability dG",
    "RESULT": "3.56 kcal/mol"
  },
  {
    "CHANGE": "A2Y",
    "MEASUREMENT_TYPE": "folding stability dG",
    "RESULT": "4.2 kcal/mol"
  },
  {
    "CHANGE": "R41I",
    "MEASUREMENT_TYPE": "folding stability dG",
    "RESULT": "3.74 kcal/mol"
  },
  {
    "CHANGE": "I36H",
    "MEASUREMENT_TYPE": "folding stability dG",
    "RESULT": "3.15 kcal/mol"
  },
  {
    "CHANGE": "G23L",
    "MEASUREMENT_TYPE": "folding stability dG",
    "RESULT": "4.02 kcal/mol"
  },
  {
    "CHANGE": "T27M",
    "MEASUREMENT_TYPE": "folding stability dG",
    "RESULT": "3.88 kcal/mol"
  },
  {
    "CHANGE": "G16K",
    "MEASUREMENT_TYPE": "folding stability dG",
    "RESULT": "3.53 kcal/mol"
  },
  {
    "CHANGE": "K14Q",
    "MEASUREMENT_TYPE": "folding stability dG",
    "RESULT": "3.56 kcal/mol"
  },
  {
    "CHANGE": "W34H",
    "MEASUREMENT_TYPE": "folding stability dG",
    "RESULT": "3.54 kcal/mol"
  },
  {
    "CHANGE": "E3A",
    "MEASUREMENT_TYPE": "folding stability dG",
    "RESULT": "3.87 kcal/mol"
  },
  {
    "CHANGE": "I26C",
    "MEASUREMENT_TYPE": "folding stability dG",
    "RESULT": "4.36 kcal/mol"
  },
  {
    "CHANGE": "F35Y",
    "MEASUREMENT_TYPE": "folding stability dG",
    "RESULT": "3.25 kcal/mol"
  },
  {
    "CHANGE": "R11A",
    "MEASUREMENT_TYPE": "folding stability dG",
    "RESULT": "3.52 kcal/mol"
  },
  {
    "CHANGE": "I26M",
    "MEASUREMENT_TYPE": "folding stability dG",
    "RESULT": "3.32 kcal/mol"
  }
]
